test system: KM12 colon; test: NCI tumour cell line growth inhibition, 48 h; in the data active = GI50 below about 0.43 µM; inactive = the rest
Tick one outcome: Yes (active), No (inactive)

Please review the following examples before continuing.
# molecule, discrete label
records = [
    ("CCCCC[C@H]1C/C=C2/C(=O)C=C[C@@H]2C/C=C\\CCCC(=O)O[C@@H](CCCCC)C/C=C2/C(=O)C=C[C@@H]2C/C=C\\CCCC(=O)O1", "Yes"),
    ("O=c1cc(-c2ccccc2F)[nH]c2ccc(N3CCCC3)cc12", "Yes"),
    ("CCCc1cc(=O)[nH]c(-n2nc(C)cc2C)n1", "No"),
]

# evaluate next
q: // param item: COC1/C=C/C(C)C(C(C)C(OC)C(C)CCC(=O)C(C)C(C/C=C/N(C)C=O)OC)OC(=O)/C=C/C=C(\C)CC(OC)CC2=CC(=O)O[C@H](C2)C(C)C(OC)CC(OC)/C=C/C(C)C(OC)C1 (some centres undefined) ; yields the recorded call
a: Yes

----------
tested on: MDA-MB-231 breast; experiment: NCI tumour cell line growth inhibition, 48 h
Known TGI of a selection of molecules

# molecule, study system, TGI
records = [
    ("COC1=CC(c2ccc[nH]2)=N/C1=C\\c1[nH]c(C)c(C(=O)CCCCC(=O)NC(C)(C)C)c1C", "MDA-MB-231 breast", "3.95 µM"),
    ("CCOP(=O)(OCC)C(Nc1ccc(Br)cc1)c1cccc([N+](=O)[O-])c1 (centres undefined)", "MDA-MB-231 breast", "43.2 µM"),
    ("CC1=NN(c2cccc(Cl)c2)C2(SCC(=O)N2c2nc3ccccc3s2)/C1=C\\c1cccs1 (centres undefined)", "MDA-MB-231 breast", "87 µM"),
    ("CC(=O)O[C@H]1C(=O)[C@@]2(C)[C@H]([C@H](OC(=O)c3ccccc3)[C@]3(O)C[C@H](OC(=O)[C@H](O)[C@@H](NC(=O)c4cccc(N=[N+]=[N-])c4)c4ccccc4)C(C)=C1C3(C)C)[C@]1(OC(C)=O)CO[C@@H]1C[C@@H]2O", "MDA-MB-231 breast", "0.422 µM"),
    ("Cc1nn(C(=O)Cc2ccccc2)c2c1C(c1ccc(O)cc1O)SC(N)=N2 (centres undefined)", "MDA-MB-231 breast", "> 100 µM"),
    ("Brc1cc(CCOC2CCCCO2)c(-c2sccc2CCOC2CCCCO2)s1 (centres undefined)", "MDA-MB-231 breast", "> 100 µM"),
    ("O=C(Nc1ccncc1)C(=O)c1cn(Cc2ccc(Cl)cc2)c2ccccc12", "MDA-MB-231 breast", "> 100 µM"),
    ("COc1cccc2c1Cc1cc(-c3ccccc3)[n+](C)n1-2", "MDA-MB-231 breast", "81.7 µM"),
]

q: Param item = CC[C@]1(Cc2ccc(OC)c(OC)c2)C=[N+]([O-])O[C@H](OC2CCCC2(c2ccccc2)c2ccccc2)[C@@H]1OC(C)=O (some centres undefined) ; retrieve measured TGI.
a: > 41.3 µM

q: Param item = O=C(O)C1OC1(c1cccc(Cl)c1)c1ccccc1Cl (centres undefined) ; retrieve measured TGI.
a: 35.8 µM

q: Param item = `O=C(c1ccc(Cl)cc1)N(C(=O)N1CCC(c2ccccc2)CC1)c1ccccc1` ; retrieve measured TGI.
a: > 100 µM

q: Param item = `C[C@H](CCC(=O)O)[C@H]1CC[C@@]2(C)[C@@H]3C(=O)C[C@H]4C(C)(C)[C@@H](O)CC[C@]4(C)[C@H]3C(=O)C[C@]12C` ; retrieve measured TGI.
a: > 100 µM

q: Param item = Cc1cccc(N(C(=O)Nc2ccc(Cl)c(Cl)c2)C2=NCC(C)S2)c1 (centres undefined) ; retrieve measured TGI.
a: > 100 µM
